Test system: SK-MEL-5 melanoma
PROTOCOL NOTES: NCI-60 one-dose screen, 48 h (100 = growth as untreated, 0 = no growth, -100 = all killed)
SETUP CONDITIONS: 10 µM
Compounds without any hit were thinned out: in the full panel of roughly 83,000, 20% have a hit.
In plain terms, low growth, meaning strictly below 80%, gives Criterion met, and everything else gives Criterion not met.

{"MOLECULE": "Cc1noc2c(Cc3ccccc3)nn(CC(=O)N/N=C/c3ccc(F)cc3)c(=O)c12", "TARGET DESC": "SK-MEL-5 melanoma", "QUALITATIVE LABEL": "Criterion met"}
{"MOLECULE": "CN(C)c1nc(NCCNS(=O)(=O)c2ccc(C(=O)/C=C/c3ccccc3)cc2)nc(Nc2ccc(F)cc2)n1", "TARGET DESC": "SK-MEL-5 melanoma", "QUALITATIVE LABEL": "Criterion met"}
{"MOLECULE": "Cc1noc2c(Cc3ccc([N+](=O)[O-])cc3)nn(CC(=O)N/N=C/c3ccc(Br)cc3)c(=O)c12", "TARGET DESC": "SK-MEL-5 melanoma", "QUALITATIVE LABEL": "Criterion not met"}
{"MOLECULE": "C=C(c1ccc(OC)c(N)c1)c1cc(C)nc2ccccc12", "TARGET DESC": "SK-MEL-5 melanoma", "QUALITATIVE LABEL": "Criterion met"}
{"MOLECULE": "CC(C)C(=O)Nc1ccc(C(=O)NC(=S)Nc2ccc(C(=O)O)cc2)cc1", "TARGET DESC": "SK-MEL-5 melanoma", "QUALITATIVE LABEL": "Criterion not met"}
{"MOLECULE": "O=C1Nc2ccc(F)cc2/C1=C/c1cccc(OCc2ccccn2)c1", "TARGET DESC": "SK-MEL-5 melanoma", "QUALITATIVE LABEL": "Criterion met"}
{"MOLECULE": "O=C(CNc1nc(-c2ccccc2)cs1)Nc1ccc([N+](=O)[O-])cc1", "TARGET DESC": "SK-MEL-5 melanoma", "QUALITATIVE LABEL": "Criterion met"}
{"MOLECULE": "O=C1Nc2ccc(Cl)cc2/C1=C/c1cccc(OCc2ccccc2)c1", "TARGET DESC": "SK-MEL-5 melanoma", "QUALITATIVE LABEL": "Criterion met"}
{"MOLECULE": "O=c1nc(-c2ccccc2)cc(-c2cc3ccccc3nc2Cl)[nH]1", "TARGET DESC": "SK-MEL-5 melanoma", "QUALITATIVE LABEL": "Criterion met"}
{"MOLECULE": "CN(CCO)c1oc(-c2ccccc2)nc1[P+](c1ccccc1)(c1ccccc1)c1ccccc1", "TARGET DESC": "SK-MEL-5 melanoma", "QUALITATIVE LABEL": "Criterion met"}
{"MOLECULE": "Cc1ccc(/C=C/C(=O)c2ccc(NC(=O)CSc3nnc(-c4c[nH]c5ccccc45)n3-c3ccccc3)cc2)cc1", "TARGET DESC": "SK-MEL-5 melanoma", "QUALITATIVE LABEL": "Criterion not met"}
{"MOLECULE": "COC(=O)c1c(C(=O)OC)c2n(c1C)[C@@H]([C@@H](C)[C@H]1CC[C@H]3[C@@H]4CCC5=CC(=O)CC[C@]5(C)[C@H]4CC[C@]13C)SC2", "TARGET DESC": "SK-MEL-5 melanoma", "QUALITATIVE LABEL": "Criterion met"}
{"MOLECULE": "O=C(Nc1ccc(F)c(Cl)c1)c1cc(-c2ccc(F)cc2F)ccc1O", "TARGET DESC": "SK-MEL-5 melanoma", "QUALITATIVE LABEL": "Criterion met"}
{"MOLECULE": "COc1nccnc1NS(=O)(=O)c1ccc(NC2=C(Cl)C(=O)c3nc(C)ccc3C2=O)cc1", "TARGET DESC": "SK-MEL-5 melanoma", "QUALITATIVE LABEL": "Criterion not met"}
{"MOLECULE": "Cc1ccc(-c2cc(-c3cc4ccccc4nc3Cl)[nH]c(=O)n2)cc1", "TARGET DESC": "SK-MEL-5 melanoma", "QUALITATIVE LABEL": "Criterion met"}
{"MOLECULE": "O=c1[nH]c2ccccc2cc1CSc1ccc(Nc2nccc(-c3ccc4c(c3)OCO4)n2)cc1", "TARGET DESC": "SK-MEL-5 melanoma", "QUALITATIVE LABEL": "Criterion not met"}
{"MOLECULE": "Nc1nc(Nc2ccccc2)nn1Cc1c(Cl)cccc1Cl", "TARGET DESC": "SK-MEL-5 melanoma", "QUALITATIVE LABEL": "Criterion met"}
{"MOLECULE": "COC[C@@H](CC(C)C)N=C1NC(=O)/C(=C/c2ccc3ncoc3c2)N1", "TARGET DESC": "SK-MEL-5 melanoma", "QUALITATIVE LABEL": "Criterion met"}
{"MOLECULE": "CCCn1c(O)c(N=Nc2nc(-c3cc4ccccc4oc3=O)cs2)c2cc(Br)ccc21", "TARGET DESC": "SK-MEL-5 melanoma", "QUALITATIVE LABEL": "Criterion not met"}
{"MOLECULE": "CCCn1c(=O)c2[nH]c(-c3ccc(OCc4nc5ccc(C)cc5[nH]4)cc3)nc2n(CCC)c1=O", "TARGET DESC": "SK-MEL-5 melanoma", "QUALITATIVE LABEL": "Criterion met"}
{"MOLECULE": "O=C(CSc1nnc(-c2c[nH]c3ccccc23)n1-c1ccccc1)Nc1ccc(C(=O)/C=C/c2ccc(Br)cc2)cc1", "TARGET DESC": "SK-MEL-5 melanoma", "QUALITATIVE LABEL": "Criterion not met"}
{"MOLECULE": "Cn1c(O)c(N=Nc2nc(-c3cc4ccccc4oc3=O)cs2)c2cc(Br)ccc21", "TARGET DESC": "SK-MEL-5 melanoma", "QUALITATIVE LABEL": "Criterion not met"}
{"MOLECULE": "Cc1ccc(NC(=O)c2ccc(-n3c(=O)[nH]c4ccccc4c3=O)cc2)cc1", "TARGET DESC": "SK-MEL-5 melanoma", "QUALITATIVE LABEL": "Criterion not met"}
{"MOLECULE": "NC1=NC(c2ccccc2Cl)N=C(Nc2nn[nH]n2)N1 (stereo not drawn)", "TARGET DESC": "SK-MEL-5 melanoma", "QUALITATIVE LABEL": "Criterion not met"}
{"MOLECULE": "CC(=C(c1ccc(OCCN2CCCCC2)cc1)c1ccc(OCCN2CCCCC2)cc1)c1ccccc1", "TARGET DESC": "SK-MEL-5 melanoma", "QUALITATIVE LABEL": "Criterion met"}
{"MOLECULE": "O=C(NO)c1ccc(CN2CCN(c3nc(-c4ccccc4)c4ccccc4n3)CC2)cc1", "TARGET DESC": "SK-MEL-5 melanoma", "QUALITATIVE LABEL": "Criterion met"}
{"MOLECULE": "CC[C@@]1(O)C(=O)OCc2c1cc1n(c2=O)Cc2c-1nc1cc(F)c(C)c3c1c2[C@@H](N)CC3", "TARGET DESC": "SK-MEL-5 melanoma", "QUALITATIVE LABEL": "Criterion met"}
{"MOLECULE": "O=c1[nH]c2ccccc2cc1CSc1ccc(Nc2nccc(-c3ccc(Cl)cc3)n2)cc1", "TARGET DESC": "SK-MEL-5 melanoma", "QUALITATIVE LABEL": "Criterion met"}
{"MOLECULE": "Brc1ccc(/C=C/c2n(Cc3ccc4ccccc4c3)c3ccccc3[n+]2Cc2ccc3ccccc3c2)cc1", "TARGET DESC": "SK-MEL-5 melanoma", "QUALITATIVE LABEL": "Criterion met"}
{"MOLECULE": "Cc1ccc2nc(-c3ccc(-c4nnc(SCC(=O)Nc5ccc(Cl)cc5)o4)cc3)[nH]c2c1", "TARGET DESC": "SK-MEL-5 melanoma", "QUALITATIVE LABEL": "Criterion not met"}
{"MOLECULE": "O=C(Cn1cc(CSc2nnc3oc4ccccc4n23)nn1)Nc1ccc(Br)cc1", "TARGET DESC": "SK-MEL-5 melanoma", "QUALITATIVE LABEL": "Criterion not met"}
{"MOLECULE": "CC(=O)Nc1ccc(-n2cnc3cc(-c4ccc(O)cc4)ccc32)cc1C", "TARGET DESC": "SK-MEL-5 melanoma", "QUALITATIVE LABEL": "Criterion met"}
{"MOLECULE": "O=C(O)CCCCCCCCCCN1C(=O)/C(=C/c2cnc(-c3ccccc3)s2)SC1=S", "TARGET DESC": "SK-MEL-5 melanoma", "QUALITATIVE LABEL": "Criterion not met"}
{"MOLECULE": "O=C(CNc1nc(-c2ccccc2)cs1)Nc1ccc(Br)cc1", "TARGET DESC": "SK-MEL-5 melanoma", "QUALITATIVE LABEL": "Criterion met"}
{"MOLECULE": "O=C(CNc1nc(-c2ccccc2)cs1)Nc1cccc(Cl)c1", "TARGET DESC": "SK-MEL-5 melanoma", "QUALITATIVE LABEL": "Criterion met"}
{"MOLECULE": "COc1ccc(N(C)c2cc(C#N)nc3ccccc23)cc1/C=C/C(=O)NO", "TARGET DESC": "SK-MEL-5 melanoma", "QUALITATIVE LABEL": "Criterion met"}
{"MOLECULE": "O=c1oc2ccc(-c3ccc(F)cc3F)cc2c(=O)n1-c1ccc(Cl)c(C(F)(F)F)c1", "TARGET DESC": "SK-MEL-5 melanoma", "QUALITATIVE LABEL": "Criterion met"}
